Hello, the source for this data is the supplement of paper PMC9112550, in case you need it.

# Test system: Escherichia coli TOP10;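 further: peptides expressed intracellularly from a pBAD plasmid library in pooled LB shake-flask culture, induced with 0.3% L-arabinose, DNA abundance read by NGS, three biological replicates, DESeq2 with apeglm shrinkage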
# Assay Text: shrunken log2 fold change of peptide-encoding DNA abundance (4.5 h post-induction vs induction); higher = less antimicrobial activity (less host growth inhibition)
# Measurement Conditions: time post-induction: 4.5 h; library: site-saturation at positions 5, 18, 19, 20
Measure: shrunken log2 fold change
API note: the answer field is a bare number with no unit suffix.

// below: answered sequences
[[record]]
construct_sequence = "RRIRARPPRLPRPRPRPHKVPRP"
measure = "shrunken log2 fold change"
value_reported = 0.31

[[record]]
construct_sequence = "RRIRERPPRLPRPRPRPHLHPRP"
measure = "shrunken log2 fold change"
value_reported = -0.485

[[record]]
construct_sequence = "RRIRTRPPRLPRPRPRPVSFPRP"
measure = "shrunken log2 fold change"
value_reported = -0.114

[[record]]
construct_sequence = "RRIRPRPPRLPRPRPRPWITPRP"
measure = "shrunken log2 fold change"
value_reported = -0.469

[[record]]
construct_sequence = "RRIRLRPPRLPRPRPRPGQLPRP"
measure = "shrunken log2 fold change"
value_reported = -0.0554

[[record]]
construct_sequence = "RRIRCRPPRLPRPRPRPDPMPRP"
measure = "shrunken log2 fold change"
value_reported = 0.00263


Q. Fill in: shrunken log2 fold change of RRIRSRPPRLPRPRPRPFIPPRP is ___
A. -0.629

Q. Now the sequence RRIRYRPPRLPRPRPRPLSVPRP
A. -0.576

Q. How about this sequence: RRIRSRPPRLPRPRPRPATCPRP
A. -0.154

Q. RRIRARPPRLPRPRPRPKFRPRP , same question.
A. -0.043

Q. And the next one, RRIRERPPRLPRPRPRPPLMPRP ?
A. 0.0142

Q. Follow-up entry: RRIRLRPPRLPRPRPRPALQPRP
A. 0.215

Q. Now give it for RRIRHRPPRLPRPRPRPLIDPRP too.
A. -0.408

Q. Quick one: RRIRIRPPRLPRPRPRPYQPPRP
A. 0.0299

Q. Similarly, RRIRMRPPRLPRPRPRPIIKPRP ?
A. -0.265

Q. Same thing, different sequence: RRIRMRPPRLPRPRPRPMDIPRP
A. 0.468

Q. Follow-up entry: RRIRDRPPRLPRPRPRPPEGPRP
A. 0.76

Q. One more sequence: RRIRWRPPRLPRPRPRPSSWPRP
A. 0.0927

Q. Lookup RRIRKRPPRLPRPRPRPHRLPRP
A. 0.164
